We begin with a simple list: items and their reported clearance.
experiment: Clearance in rat at 0.5 mg/kg, iv and 2 mg/kg, po; format: ADME, organism-based; details: in vivo
Your answer should be a plain number; it is taken to be in mL/min/kg.

>>> recorded_value("O=C(Nc1nc2cc(CN3CCCCC3)ccc2n1[C@H]1CC[C@@H](CO)CC1)c1cccc([N+](=O)[O-])c1")
40
>>> recorded_value("O=C(Nc1nc2cc(CN3CCCCC3)ccc2n1[C@H]1CC[C@H](O)CC1)c1cccc([N+](=O)[O-])c1")
41.7
>>> recorded_value("O=C(Nc1nc2cc(CN3CCCCC3)ccc2n1-c1ccc(CCO)cc1)c1cccc(C(F)(F)F)c1")
36.7

// returns reported clearance for input `O=C(Nc1nc2cc(CN3CCCCC3)ccc2n1-c1ccccc1)c1cccc(C(F)(F)F)c1`
9

====

Biological target: Interleukin-1 receptor-associated kinase 4 (Homo sapiens)
Sequence (Q9NWZ3 whole entry): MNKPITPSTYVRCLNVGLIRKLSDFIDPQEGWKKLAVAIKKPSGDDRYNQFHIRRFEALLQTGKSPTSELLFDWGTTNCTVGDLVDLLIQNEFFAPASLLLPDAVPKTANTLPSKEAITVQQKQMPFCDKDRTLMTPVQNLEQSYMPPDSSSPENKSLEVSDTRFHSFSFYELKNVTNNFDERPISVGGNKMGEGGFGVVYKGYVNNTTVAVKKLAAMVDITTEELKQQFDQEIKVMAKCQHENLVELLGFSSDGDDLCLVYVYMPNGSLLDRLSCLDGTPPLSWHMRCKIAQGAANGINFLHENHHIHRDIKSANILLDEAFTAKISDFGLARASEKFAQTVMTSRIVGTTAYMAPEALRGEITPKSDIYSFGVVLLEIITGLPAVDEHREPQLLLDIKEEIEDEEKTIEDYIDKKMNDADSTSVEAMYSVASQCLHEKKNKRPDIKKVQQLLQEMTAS
Experiment: Inhibition of recombinant full length IRAK-4 (unknown origin) using the biotinylated substrate RRRVTSPARRS by chemiluminescent ELISA
// NB: equality with 6 nM counts as False; only Ki strictly below is True

The following molecules have reported results that may help.
>>> assigned_category("O=C(Nc1nc2cc(CN3CCCCC3)ccc2n1[C@H]1CC[C@@H](CO)CC1)c1cccc(C(F)(F)F)c1")
"True"
>>> assigned_category("O=C(Nc1nc2cc(F)ccc2n1[C@H]1CC[C@H](CO)C1)c1cccc([N+](=O)[O-])c1")
"False"

Is Ki strictly under 6 nM for the entry `O=C(Nc1nc2cc(CO)ccc2n1[C@H]1CC[C@H](O)CC1)c1cccc([N+](=O)[O-])c1` ?
False

Lab log: compare recorded Ki with 6 nM; is it strictly lower for `O=C(Nc1nc2cc(CN3CCOCC3)ccc2n1[C@H]1CC[C@H](O)CC1)c1cccc([N+](=O)[O-])c1` ?
True

I wonder whether `O=C(Nc1nc2ccc(CO)cc2n1[C@H]1CC[C@@H](CO)CC1)c1cccc(C(F)(F)F)c1` has Ki below 6 nM. Can you tell?
True

Quick check: does `O=C(Nc1nc2cc(F)ccc2n1CCCO)c1cccc([N+](=O)[O-])c1` have Ki under 6 nM?
False

Decide: Ki of `O=C(Nc1nc2cc(F)ccc2n1[C@H]1CC[C@@H](CO)C1)c1cccc([N+](=O)[O-])c1` strictly below 6 nM?
False
